Recorded values, source BindingDB's records for doi:10.1021/np800692t.

Biological target: Signal transducer and activator of transcription 3 (Homo sapiens)
Sequence (P40763 whole entry): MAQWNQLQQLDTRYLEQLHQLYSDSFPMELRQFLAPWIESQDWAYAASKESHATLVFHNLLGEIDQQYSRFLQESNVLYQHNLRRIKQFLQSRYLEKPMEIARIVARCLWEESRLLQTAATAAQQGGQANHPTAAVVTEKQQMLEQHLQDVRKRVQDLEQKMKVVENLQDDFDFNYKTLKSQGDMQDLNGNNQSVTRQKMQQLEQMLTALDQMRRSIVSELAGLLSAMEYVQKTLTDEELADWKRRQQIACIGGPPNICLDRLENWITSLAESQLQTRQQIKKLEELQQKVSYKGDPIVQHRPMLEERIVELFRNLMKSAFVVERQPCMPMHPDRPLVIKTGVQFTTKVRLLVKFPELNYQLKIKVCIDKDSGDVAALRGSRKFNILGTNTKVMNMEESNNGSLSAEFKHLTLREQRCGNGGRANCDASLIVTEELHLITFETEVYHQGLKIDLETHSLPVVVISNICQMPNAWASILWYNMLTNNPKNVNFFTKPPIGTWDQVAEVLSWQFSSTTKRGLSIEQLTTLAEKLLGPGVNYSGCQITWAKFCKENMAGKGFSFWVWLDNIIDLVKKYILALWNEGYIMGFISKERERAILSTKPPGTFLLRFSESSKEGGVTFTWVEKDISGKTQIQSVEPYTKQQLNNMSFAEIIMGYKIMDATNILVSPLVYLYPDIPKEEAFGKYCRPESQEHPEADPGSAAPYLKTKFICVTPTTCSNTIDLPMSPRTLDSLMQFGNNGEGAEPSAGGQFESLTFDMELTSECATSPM
READOUT_TYPE: pIC50
Give only the number. pIC50 is defined as minus log10 of concentration in molar units.

Req: If you can, please state the reported pIC50 value of CC(=O)OC(C)(C)/C=C/C(=O)[C@](C)(O)[C@H]1[C@H](O)C[C@@]2(C)[C@@H]3CC=C4[C@H](C[C@H](O)C(=O)C4(C)C)[C@]3(C)C(=O)C[C@]12C [CUCURBITACIN B] .
Resp: 5.52
